- Tested on: Staphylococcus aureus Clin-211(MRSA)
Property Measured: MIC (µg/mL)

Cc1c(-c2ccc(N)c(F)c2)ccn2c(=O)c(C(=O)O)cc(C3CC3)c12 = 0.063

(a) Cc1c(-c2ccc(C#N)cc2)ccn2c(=O)c(C(=O)O)cc(C3CC3)c12
(b) Cc1c(-c2cccc(CN(C)C)c2)ccn2c(=O)c(C(=O)O)cc(C3CC3)c12
(c) COc1ccc(-c2ccn3c(=O)c(C(=O)O)cc(C4CC4)c3c2C)cc1CN
(d) Cc1c(-c2ccc(N)cc2)ccn2c(=O)c(C(=O)O)cc(C3CC3)c12
Order the 4 compounds from highest to lowest MIC. Please, when replying, give the labels in the order that was requested.
b, c, a, d
